# System: Trypanosoma cruzi
# test description: Trypanosoma cruzi phosphomannomutase and mannose-1-phosphate guanylyltransferase assay
# Type: functional
# Design: scale not given: direction of the effect not stated beside the values
# run parameters: 10 µM
# reported Percent Effect; entries follow
property measured: Percent Effect

>>> endpoint_result("Cc1cc(CN2CCc3nn(C)c(=O)cc3C2)on1")
"-0.0972%"
>>> endpoint_result("Cc1ccsc1CNc1cc(N2CCCC2CO)ncn1 (configuration not stated)")
"1.33%"
>>> endpoint_result("N#Cc1cccc(NC(=O)N[C@H](CO)c2ccccc2)c1")
"-1.35%"
>>> endpoint_result("CCCc1nc(N2Cc3cnn(Cc4ccc(F)cc4)c3C2)no1")
"-2.04%"
>>> endpoint_result("CCc1ccc(-n2c(=O)[nH]c3nc(N4CCSCC4)ncc3c2=O)cc1")
"1.85%"
>>> endpoint_result("Cc1oc(C)c(C(=O)NCc2ccccn2)c1C")
"-12.8%"
>>> endpoint_result("O=C(Nc1ccccc1)C1CN(CC2CC2)CC12CCOCC2 (configuration not stated)")
"-0.579%"
>>> endpoint_result("CC(C)NC(=O)CS(=O)(=O)Cc1cc(Cl)c2c(c1)OCCO2")
"-0.283%"
>>> endpoint_result("NCCn1nc(C2CCN(Cc3ccc(Cl)c(Cl)c3)C2)c2nccnc21 (configuration not stated)")
"2.37%"
>>> endpoint_result("CN1CC(=O)N(c2cccc(F)c2)CC12CCN(Cc1cccnc1)C2 (configuration not stated)")
"-2.46%"
>>> endpoint_result("Cc1cnc(CN2CCCC(c3cc(C(N)=O)[nH]n3)C2)o1 (configuration not stated)")
"0.472%"
>>> endpoint_result("CCn1cnnc1C1CCN(C(=O)c2cc3c(s2)CCC3)CC1")
"6.52%"

* * *

# reported Percent Effect; entries follow
# system under test: Protein translocase subunit SecA (Escherichia coli (strain K12))
# test description: Assay to Identify E. coli SecA ATPase Inhibitors
# Type: functional
# Set-up: scale not given: direction of the effect not stated beside the values
# run parameters: 30 µM
Results with a measured potency or affinity are listed apart.
property measured: Percent Effect (%)

>>> endpoint_result("Cc1ccc2cnn(CCC(=O)Nc3c(C)nn(C)c3C)c2c1")
-3.51
>>> endpoint_result("CCN(CCn1cccn1)Cc1nc(-c2ccccc2F)oc1C")
-1.08
>>> endpoint_result("O=C(COCc1nc(-c2ccncc2)no1)NC1CCCCC1")
-6.1
>>> endpoint_result("CCn1cnnc1CNC(=O)N1CCCN(C(C)=O)CC1")
-6.81
>>> endpoint_result("CCn1nc(CC(C)C)cc1C(=O)N1C[C@H](O)[C@@H](N2CCCCC2)C1")
-3.95
>>> endpoint_result("Cc1cc(C)n(C2CCCN(C(=O)CCCNc3ncccn3)C2)n1 (stereo unspecified)")
-6.94

* * *

# Tested on: Trypanosoma cruzi
# test description: Trypanosoma cruzi phosphomannomutase and mannose-1-phosphate guanylyltransferase assay
# Type: functional
# Design: scale not given: direction of the effect not stated beside the values
# run parameters: 10 µM
# reported Percent Effect; entries follow
property measured: Percent Effect (%)

>>> endpoint_result("CC(C)c1noc(C(C)N2CCN(CCO)CC2)n1 (configuration not stated)")
-3.68
>>> endpoint_result("Cc1nc2ccccc2nc1CN1CCCC1c1c(C)nn(C)c1C (configuration not stated)")
5.44
>>> endpoint_result("CC(=O)c1c(F)cccc1N1CCC(CS(N)(=O)=O)CC1")
0.595
>>> endpoint_result("Cc1cc(CNC(=O)N2CCN(c3nc(C)c(C)s3)CC2)no1")
9.18
>>> endpoint_result("CC(CNC(=O)N1CCSCC1)Cc1cccs1 (configuration not stated)")
-0.195
>>> endpoint_result("CC1CCN(CCNC(=O)C2CCN(S(N)(=O)=O)CC2)CC1")
-3.4
>>> endpoint_result("Cc1nc(NC2CCCC2)cc(C2CCN2C(=O)c2cccnc2)n1 (configuration not stated)")
4.54
>>> endpoint_result("CCN1CCCC1CN(CCN(C)C)S(=O)(=O)c1cccc(C#N)c1 (configuration not stated)")
6.27
>>> endpoint_result("Cc1nn(C)c(N2CCOCC2)c1CNC1CCN(C(C)(C)C)CC1")
-1.42
>>> endpoint_result("CCN(CC)C(=O)c1nnn(-c2ccc(C)cc2)c1C1CC1")
6.04
>>> endpoint_result("CC(C)CNC(=O)CN1C=Nc2ccccc2S1(=O)=O")
-10.6
>>> endpoint_result("c1csc(-c2nc(CNC3CCc4ncnn4C3)co2)c1 (configuration not stated)")
-5.24

* * *

# system under test: AMP-activated protein kinase, AMPK (Homo sapiens) (UniProt P54646+O43741+P54619+Q9UGJ0+Q9Y478+Q13131+Q9UGI9)
# test description: AMP-dependent Kinase enzyme assay. An in vitro enzyme assay that detects ADP turnover that is directly proportional to AMPK activity. This uses naive AMPK that is activated during the assay with MK-8722
# Assay type: functional
# Parameters: scale not given: direction of the effect not stated beside the values
# run parameters: 30 µM
property measured: Percent Effect (%)

>>> endpoint_result("Cc1cnc(CN(C)C2CCN(CC(=O)N(C)c3nccs3)C2)o1 (configuration not stated)")
3.25
>>> endpoint_result("COCCN(C)C(=O)c1ccc(OC)cc1O")
0.346
>>> endpoint_result("CCn1nc(C(C)C)cc1C(=O)NCCCOC")
0.234
>>> endpoint_result("CCc1c(C(=O)NC2CCS(=O)(=O)C2)cnn1-c1ccc(F)cc1 (configuration not stated)")
-2.59
>>> endpoint_result("C[C@@H]1CN(C(=O)c2ccsc2)C[C@]12CCN(c1ccsc1)C2=O")
13.8
>>> endpoint_result("CN(C)c1ccc(CNc2cncc(-n3cccn3)n2)cc1")
0.00463
>>> endpoint_result("NC(=O)c1cc(C2CCCN(C(=O)CCc3cscn3)C2)n[nH]1 (configuration not stated)")
9.04
>>> endpoint_result("CCCc1n[nH]c(C2CN(C(=O)c3ccco3)CCO2)n1 (configuration not stated)")
2.64
>>> endpoint_result("CCS(=O)(=O)N(C)C(=O)c1cc(C)n(-c2cccc(OC)c2)c1C")
-7.29
>>> endpoint_result("CCOc1cccc(C(=O)NCCC(=O)Nc2ccncc2)c1")
3.2
>>> endpoint_result("CSCc1cccc(S(=O)(=O)NCCCN2CCOCC2)c1")
1.35
>>> endpoint_result("FC(F)(F)c1cc(N2CCc3ncnc(NC4CC4)c3CC2)ncn1")
11.7

* * *

# reported Percent Effect; entries follow
# system under test: Chromo domain-containing protein 1 (Saccharomyces cerevisiae (strain ATCC 204508 / S288c) (Baker's yeast))
# test description: ScCHD-1 Enzyme Inhibition Assay; further: in the data most compounds retested in dose-response had high values
# Format: functional
# Parameters: scale not given: direction of the effect not stated beside the values
# run parameters: 30 µM
property measured: Percent Effect (%)

>>> endpoint_result("CSc1nccn1-c1cccc(C(=O)NCC2CC2)c1")
2.32
>>> endpoint_result("Cc1oc(C)c(C(=O)NCc2cccnc2N(C)C)c1C")
-9.19
>>> endpoint_result("CNC(=O)c1cc2c(nc1NC(C)C)CCN(C(=O)NC(C)C)CC2")
-0.531
>>> endpoint_result("Cc1nc(C)n(CC2CCCCN2CC(=O)N(C)Cc2ccco2)n1 (configuration not stated)")
-7.89
>>> endpoint_result("O=C1COc2cc(C(=O)NS(=O)(=O)c3ccccc3F)ccc2N1")
2.83
>>> endpoint_result("CCOc1ccc(C(=O)NS(=O)(=O)c2cncc(Br)c2)cc1OC")
-13.3
>>> endpoint_result("Cc1nn(C)c(N2CCOCC2)c1CNCc1nccs1")
-6.95
>>> endpoint_result("CC(NCc1ccccc1Br)c1ccc2[nH]c(=O)[nH]c2c1 (configuration not stated)")
-4.59
>>> endpoint_result("COCC(=O)N(C)Cc1cccc(Cl)c1")
-4.61
>>> endpoint_result("O=C(NC1=NCCCN1c1ccc(Cl)cc1)c1cccc(Cl)c1")
0.69
>>> endpoint_result("Cc1nc(-c2ccco2)ccc1C(=O)N1CCCC1Cn1cccn1 (configuration not stated)")
-8.65
>>> endpoint_result("O=C(c1ccnnc1)N1C[C@H](Oc2cccnc2)[C@H]2OCCC[C@H]21")
-3.24

* * *

# system under test: Arginase-2, mitochondrial (Homo sapiens) (UniProt P78540)
# Sequence (whole entry): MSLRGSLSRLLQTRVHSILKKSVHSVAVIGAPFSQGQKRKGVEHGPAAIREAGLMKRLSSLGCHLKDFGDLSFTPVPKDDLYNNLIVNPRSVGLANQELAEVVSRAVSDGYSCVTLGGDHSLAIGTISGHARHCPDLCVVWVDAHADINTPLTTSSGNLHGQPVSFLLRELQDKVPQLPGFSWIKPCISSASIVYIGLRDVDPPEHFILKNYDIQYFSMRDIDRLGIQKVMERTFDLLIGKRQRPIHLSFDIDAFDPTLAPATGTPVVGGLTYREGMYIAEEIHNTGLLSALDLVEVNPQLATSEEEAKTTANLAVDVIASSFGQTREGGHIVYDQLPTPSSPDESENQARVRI
# test description: in vitro enzyme assay to detect the production of urea directly proportional to the activity of Arginase II; further: in the data most compounds retested in dose-response had high values
# Assay type: functional
# Set-up: scale not given: direction of the effect not stated beside the values
# run parameters: 33.3 µM
property measured: Percent Effect

>>> endpoint_result("CC(=O)N1CCN(Cc2nnc(C(C)(C)C)o2)CC1")
"2.86%"
>>> endpoint_result("CCCc1cc(C(=O)N(C)Cc2cnc3ccccc3n2)n(C)n1")
"11%"
>>> endpoint_result("COC(=O)c1ccc(C(=O)NS(=O)(=O)c2cncc(Br)c2)cc1")
"-0.952%"
>>> endpoint_result("COc1ccc(OCc2cc(C(=O)N3CCN[C@H](C)C3)n[nH]2)c(Cl)c1")
"2.86%"
>>> endpoint_result("CCn1cc(NC(=O)NCC(c2cccs2)N(C)C)cn1 (centres undefined)")
"-3.83%"
>>> endpoint_result("Cc1nc(C2(NCC(=O)NCCc3cccs3)CCCC2)no1")
"-9.47%"
>>> endpoint_result("CN(C)C(=O)CN1CCCCC1c1nc(N)ncc1-c1ccccc1 (centres undefined)")
"2.1%"
>>> endpoint_result("CCn1nc(CC(C)C)cc1C(=O)NCCCOC")
"4.86%"
>>> endpoint_result("Cc1nc(C(C)C)sc1C(=O)NS(=O)(=O)c1ccc(C#N)cc1")
"9.52%"
>>> endpoint_result("COCC1COCCC12CCN(C(=O)CCc1ccccc1)CC2 (centres undefined)")
"0%"
>>> endpoint_result("CN1CCCC(Cc2ccnc3ccncc23)CC1 (centres undefined)")
"-2.09%"
>>> endpoint_result("O=C(c1ccoc1)N1CC[C@@H]2O[C@H](COCc3ccccn3)CC[C@@H]21")
"2.87%"
>>> endpoint_result("CCc1nccn1C1CCCN(C(=O)c2ccc3[nH]cnc3c2)C1 (centres undefined)")
"1.18%"
>>> endpoint_result("CN1CCC(C(=O)NCc2nncn2-c2ccccc2)CC1=O (centres undefined)")
"-2%"
>>> endpoint_result("Cc1nc(C)n(C2CCCN(C(=O)c3cnc[nH]3)C2)n1 (centres undefined)")
"2%"
>>> endpoint_result("Cc1nccc([C@@H]2C[C@@H]3CCN(S(C)(=O)=O)C[C@H]3O2)n1")
"-0.744%"
>>> endpoint_result("C1CC1c1nsc(N2CCN(C3CC3)CC2)n1")
"13.2%"
>>> endpoint_result("NC(=O)C1CCN(C(=O)NCc2ccccc2Cn2cncn2)CC1")
"0%"
>>> endpoint_result("CC(=O)NCCNC(=O)N(C)Cc1ccc2c(c1)OCCO2")
"6.1%"
>>> endpoint_result("CC(=O)N1CCN(c2cc(C3CN(C)CCO3)nc(C)n2)CC1 (centres undefined)")
"-1.16%"
>>> endpoint_result("COc1cc(N2C[C@H]3OCC[C@H]3[C@H](C(=O)NC3CC3)C2)ncn1")
"0.399%"
>>> endpoint_result("Cc1ncsc1CN1CC[C@H]2OCC[C@@]2(C(=O)NC(C)C)C1")
"0.645%"
>>> endpoint_result("COc1c(CNCc2cccc(Cn3ccnc3)c2)c(C)nn1C")
"-11.2%"
>>> endpoint_result("Cc1ncc(C)c(N2CCCC(CO)(Cc3cccc(Cl)c3)C2)n1 (centres undefined)")
"9.65%"
